These entries and their values trace back to patent US8906925B2.

target: human recombinant serotonin (5-Hydroxytryptamine) 5-HT2A receptor (Homo sapiens); construct: expressed in transfected cells; host or cells: Chinese hamster ovary (CHO-K1) cells; experiment: Serotonin 5-HT2A radioligand binding ([3H]Ketanserin); conditions: read-out: Inhibition of ligand binding, Serotonin 5-HT2A (percent inhibition of specific binding), compound at 1 μM
Sequence (P28223 whole entry): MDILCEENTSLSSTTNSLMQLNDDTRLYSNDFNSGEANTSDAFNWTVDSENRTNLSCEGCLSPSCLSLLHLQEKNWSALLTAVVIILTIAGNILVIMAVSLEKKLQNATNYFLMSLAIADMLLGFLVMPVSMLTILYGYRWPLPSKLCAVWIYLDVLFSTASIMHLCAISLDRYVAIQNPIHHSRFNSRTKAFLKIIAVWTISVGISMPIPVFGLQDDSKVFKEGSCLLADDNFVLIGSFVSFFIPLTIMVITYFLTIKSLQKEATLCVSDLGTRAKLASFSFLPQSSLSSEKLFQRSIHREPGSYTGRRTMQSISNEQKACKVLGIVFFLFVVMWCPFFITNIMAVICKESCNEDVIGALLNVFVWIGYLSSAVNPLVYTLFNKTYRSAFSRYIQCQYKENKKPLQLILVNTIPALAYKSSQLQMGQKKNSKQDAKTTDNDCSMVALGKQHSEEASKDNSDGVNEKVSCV

molecule | inhibition at 1 µM [%]
C/C(=C\n1c2c(c3cc(Cl)c(Cl)cc31)CN(C)CC2)c1ccncc1 | 100
C/C(=C\n1c2c(c3ccccc31)CN(C)CC2)c1ccncc1 | 98
COc1ccc(C(C)(O)Cn2c3c(c4cc(Cl)ccc42)CN(C)CC3)cc1 (stereo not shown) | 95
CCCC/C(=C\n1c2c(c3cc(Cl)ccc31)CN(C)CC2)c1ccc(F)cc1 | 102
Cc1ccc2c(c1)c1c(n2CC(O)c2ccc(F)cc2)CCN(C)C1 (stereo not shown) | 91
CN1CCc2c(c3ccccc3n2CC(C)(O)c2ccncc2)C1 (stereo not shown) | 74
CNC(=O)C/C(=C\n1c2c(c3cc(C)ccc31)CN(C)CC2)c1ccc(F)cc1 | 97
CN1CCc2c(c3cc(Cl)ccc3n2C#Cc2ccc(F)cc2)C1 | 99
C=C(Cn1c2c(c3cccc(Cl)c31)CN(C)CC2)c1ccc(F)cc1 | 100
CN1CCc2c(c3cc(F)ccc3n2CC(C)(O)c2ccncc2)C1 (stereo not shown) | 77

----------
# inhibition at 1 µM per entry
molecular target: human recombinant serotonin (5-Hydroxytryptamine) 5-HT2C receptor (Homo sapiens, UniProt P28335); construct: expressed in transfected cells; host or cells: Chinese hamster ovary (CHO-K1) cells; assay: Serotonin 5-HT2C radioligand binding ([3H]Mesulergine); details: compound at 1 μM; read-out: Inhibition of ligand binding, Serotonin 5-HT2C (percent inhibition of specific binding)
Sequence (P28335 33-458): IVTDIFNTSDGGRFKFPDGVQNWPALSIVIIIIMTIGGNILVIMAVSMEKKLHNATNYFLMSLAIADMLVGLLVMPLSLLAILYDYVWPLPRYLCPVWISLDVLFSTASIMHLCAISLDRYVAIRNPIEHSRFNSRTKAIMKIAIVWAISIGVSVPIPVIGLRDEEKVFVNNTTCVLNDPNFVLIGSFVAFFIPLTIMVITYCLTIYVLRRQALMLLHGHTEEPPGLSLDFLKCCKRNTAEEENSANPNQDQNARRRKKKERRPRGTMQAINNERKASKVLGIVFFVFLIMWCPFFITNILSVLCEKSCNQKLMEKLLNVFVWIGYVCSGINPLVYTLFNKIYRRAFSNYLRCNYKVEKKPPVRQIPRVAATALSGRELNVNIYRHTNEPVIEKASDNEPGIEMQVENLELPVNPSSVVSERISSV
property-name: inhibition at 1 µM (%)

compound | meas-value
C/C(=C/n1c2c(c3cc(Cl)ccc31)CN(C)CC2)c1cc(F)c(F)cc1Cl | 99
CN1CCc2c(c3cc(Cl)ccc3n2C/C(=C/CCO)c2ccc(F)cc2)C1 | 96
COc1ccc(C#Cn2c3c(c4cc(Cl)ccc42)CN(C)CC3)cc1F | 99
C/C(=C\n1c2c(c3ccc(F)cc31)CN(C)CC2)c1ccc(F)cc1 | 103
CCC(O)(Cn1c2c(c3cc(C)ccc31)CN(C)CC2)c1ccc(F)cc1 (stereo not drawn) | 95
CN1CCc2c(c3cc(Cl)ccc3n2C/C(=C\CCO)c2ccc(F)cc2)C1 | 91
C/C(=C/n1c2c(c3cc(C)ccc31)CN(C)CC2)c1ccccc1Cl | 99
COc1ccc2c(c1)c1c(n2/C=C(\C)c2ccncc2)CCN(C)C1 | 94
COc1ccc(C(C)(O)Cn2c3c(c4cc(Cl)ccc42)CN(C)CC3)cc1F (stereo not drawn) | 99
C=C(Cn1c2c(c3cc(Cl)ccc31)CN(C)CC2)c1ccc(OC)c(F)c1 | 98
C=C(Cn1c2c(c3cccc(Cl)c31)CN(C)CC2)c1ccc(F)cc1 | 101
CN1CCc2c(c3cc(Cl)ccc3n2C#Cc2ccc(F)cc2)C1 | 96
C/C(=C\n1c2c(c3ccc(Cl)cc31)CN(C)CC2)c1ccncc1 | 98
CN1CCc2c(c3cc(F)ccc3n2CC(C)(O)c2ccncc2)C1 (stereo not drawn) | 80
C/C(=C\n1c2c(c3cc(F)ccc31)CN(C)CC2)c1ccncc1 | 94
C/C(=C\n1c2c(c3cc(C)ccc31)CN(C)CC2)c1cc(F)c(F)cc1Cl | 99
C/C(=C\n1c2c(c3ccccc31)CN(C)CC2)c1ccc(F)cc1 | 100
CCC/C=C(/Cn1c2c(c3cc(Cl)ccc31)CN(C)CC2)c1ccc(F)cc1 | 101
CN1CCc2c(c3cc(Cl)ccc3n2CC(O)c2ccncc2)C1 (stereo not drawn) | 78
C/C(=C\n1c2c(c3cc(Cl)ccc31)CN(C)CC2)c1ccc(C)nc1 | 98
COc1ccc2c(c1)c1c(n2/C=C(/C)c2ccncc2)CCN(C)C1 | 93
